Data credit: patent EP1986670B1

# Target Of Assay: intestinal α-glucosidase
# Protocol Notes: Assay for intestinal α-glucosidase inhibition (p-nitrophenyl α-D-glucopyranoside substrate, read at 405 nm)
# Format: biochemical, Rat
# Applied Conditions: crude enzyme from rat intestinal acetone powder; substrate p-nitrophenyl α-D-glucopyranoside; phosphate buffer pH6.8; triplicate
# cutoff 60 µg/mL applies to Intestinal α-glucosidase inhibitory activity IC50 VALUES; >= gives condition met, < gives condition not met

Q: hey, is Intestinal α-glucosidase inhibitory activity IC50 VALUES for this one >= 60 µg/mL? COc1cc(O)c2c(=O)cc(-c3ccccc3)oc2c1
Result: condition met

Q: hey, is Intestinal α-glucosidase inhibitory activity IC50 VALUES for this one >= 60 µg/mL? O=c1cc(-c2ccccc2)oc2cc(O)cc(O)c12 [Chrysin, 5,7-dihydroxy-2-phenyl-chromen-4-one]
Result: condition not met

Q: hey, is Intestinal α-glucosidase inhibitory activity IC50 VALUES for this one >= 60 µg/mL? O=c1cc(-c2ccccc2)oc2cc(O)c(O)c(O)c12 [Baicalein, 5,6,7-trihydroxy-2-phenyl-chromen-4-one]
Result: condition not met

Q: hey, is Intestinal α-glucosidase inhibitory activity IC50 VALUES for this one >= 60 µg/mL? COc1c(O)cc2oc(-c3ccccc3)cc(=O)c2c1O
Result: condition not met

Q: hey, is Intestinal α-glucosidase inhibitory activity IC50 VALUES for this one >= 60 µg/mL? COC(=O)[C@H]1O[C@@H](Oc2cc3oc(-c4ccccc4)cc(=O)c3c(O)c2OC)[C@H](O)[C@@H](O)[C@@H]1O [Oroxyloside methyl ester]
Result: condition met
